- target_system: T1, human CD3 protein (human, UniProt P07766 23-126; P04234 22-105)
- T1 construct: ELISA coating protein; also called Human CD3D & CD3E Heterodimer Protein
- T1 sequence (P07766 23-126 limits assumed, chain 1 of 2): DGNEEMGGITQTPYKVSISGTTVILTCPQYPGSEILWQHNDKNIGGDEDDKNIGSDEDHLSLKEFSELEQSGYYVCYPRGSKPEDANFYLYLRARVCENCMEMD
- T1 sequence (P04234 22-105 limits assumed, chain 2 of 2): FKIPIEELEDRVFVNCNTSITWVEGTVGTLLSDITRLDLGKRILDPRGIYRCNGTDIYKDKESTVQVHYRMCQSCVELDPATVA
- test_protocol: ELISA, plate-coated CD3;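 further: binding to plate-immobilized human CD3 protein, bound antibody detected with peroxidase-labelled anti-human IgG and TMB, read as absorbance at 450 nm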
readout_label: EC50

Entry Hu155A9B1-11 (antibody, V domains shown, humanized mAb) VH: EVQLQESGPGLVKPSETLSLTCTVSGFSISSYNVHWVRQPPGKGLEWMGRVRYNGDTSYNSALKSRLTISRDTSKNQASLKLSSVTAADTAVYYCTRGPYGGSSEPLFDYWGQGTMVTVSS VL: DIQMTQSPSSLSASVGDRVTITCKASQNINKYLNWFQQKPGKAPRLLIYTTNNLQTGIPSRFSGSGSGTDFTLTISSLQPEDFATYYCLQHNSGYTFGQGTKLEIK , EC50 reported as 3.2 ng/mL

Entry Hu192A7B9-15 (antibody, V domains shown, humanized mAb) VH: EVQLQESGPGLVKPSETLSLTCTVSGGSISSYNVHWVRQPPGKGLEWMGRMRYNGDTSYNSALKSRLTISRDTSKNQFSLKLSSVTAADTAVYYCARGPRGGYYSALFDYWGQGTMVTVSS VL: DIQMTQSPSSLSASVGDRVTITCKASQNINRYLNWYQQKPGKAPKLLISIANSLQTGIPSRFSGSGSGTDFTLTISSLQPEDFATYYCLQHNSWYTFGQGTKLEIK ; EC50 = 28.8 ng/mL

# EC50 (binder: Hu153A6B1-18 (antibody, V domains shown, humanized mAb) VH: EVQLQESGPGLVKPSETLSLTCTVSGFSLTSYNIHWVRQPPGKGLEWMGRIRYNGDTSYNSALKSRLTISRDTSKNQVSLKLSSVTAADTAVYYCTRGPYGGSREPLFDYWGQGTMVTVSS VL: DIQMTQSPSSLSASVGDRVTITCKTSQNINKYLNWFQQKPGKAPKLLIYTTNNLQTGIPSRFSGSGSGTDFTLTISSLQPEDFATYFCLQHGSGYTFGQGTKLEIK ) is 2.82 ng/mL

Hu153A6B1-11 (antibody, V domains shown, humanized mAb) VH: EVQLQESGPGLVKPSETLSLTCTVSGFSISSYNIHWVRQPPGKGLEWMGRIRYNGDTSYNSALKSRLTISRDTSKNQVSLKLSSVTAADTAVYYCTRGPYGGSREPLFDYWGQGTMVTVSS VL: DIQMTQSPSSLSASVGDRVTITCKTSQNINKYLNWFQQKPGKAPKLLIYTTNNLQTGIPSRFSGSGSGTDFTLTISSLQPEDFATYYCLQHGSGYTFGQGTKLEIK has a reported EC50 of 3.05 ng/mL

In plain terms, Hu192A7B9-10 (antibody, V domains shown, humanized mAb) VH: EVQLQESGPGLVKPSETLSLTCTVSGGSISSYNVHWVRQPPGKGLEWMGRMRYNGDTSYNSALKSRLTISRDTSKNQFSLKLSSVTAADTAVYYCTRGPRGGYYSALFDYWGQGTMVTVSS VL: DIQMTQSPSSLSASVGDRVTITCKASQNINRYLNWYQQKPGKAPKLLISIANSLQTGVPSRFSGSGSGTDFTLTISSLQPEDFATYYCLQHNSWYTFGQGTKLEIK has a documented EC50 of 5.08 ng/mL
